Entries and their koff
Biological target: cynomolgus monkey MuSK (cynomolgus monkey, UniProt A0A2K5USF6 24-487)
Sequence (A0A2K5USF6 entry or part of it): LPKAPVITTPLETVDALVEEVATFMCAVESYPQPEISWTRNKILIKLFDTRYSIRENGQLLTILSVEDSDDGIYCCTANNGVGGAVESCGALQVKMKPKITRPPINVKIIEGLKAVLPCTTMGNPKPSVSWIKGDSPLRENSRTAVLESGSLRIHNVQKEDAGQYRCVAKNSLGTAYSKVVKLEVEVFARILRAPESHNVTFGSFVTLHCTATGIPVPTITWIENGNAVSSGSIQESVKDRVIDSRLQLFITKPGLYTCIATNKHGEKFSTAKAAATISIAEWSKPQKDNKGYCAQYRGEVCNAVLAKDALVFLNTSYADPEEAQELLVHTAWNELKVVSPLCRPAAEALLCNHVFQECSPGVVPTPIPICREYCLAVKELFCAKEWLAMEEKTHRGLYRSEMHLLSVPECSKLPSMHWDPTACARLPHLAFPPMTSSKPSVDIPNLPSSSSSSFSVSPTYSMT
Assay: Biacore, MuSK on chip, association pH 7.4, dissociation pH 5.5
Answer with a number only, understood to be in s⁻¹.

Below are worked cases with known answers.
BINDER	koff, s⁻¹
3B2g1m2 (antibody, human IgG1, V domains shown, human IgG1-LALA backbone; produced in HEK293 cells) VH: EVQLLESGGGLVQPGGSLRLSCAASGFTFSDYGMSWVRQAPGKGLEWVSAIPGSGGSTYYKESVKGRFTISRDNSKNTLYLQMNSLRAEDTAVYYCAKRSGRIAFGALDAWGQGTLVTVSS VL: QTVVTQEPSFSVSPGGTVTLTCGLSSGSVTSSNYPDWYQQTPGQAPRTLIYSTDSRHSGVPDRFSGSILGNKAALTITGAQADDESDYYCGLYMYSGSKNYVFGGGTKLTVL	0.0034
3B2g1m1 (antibody, human IgG1, V domains shown, human IgG1-LALA backbone; produced in HEK293 cells) VH: EVQLLESGGGLVQPGGSLRLSCAASGFTFSDYGMSWVRQAPGKGLEWVSAIPWSGGSTYYKESVKGRFTISRDNSKNTLYLQMNSLRAEDTAVYYCAKRSGRIAFGALDAWGQGTLVTVSS VL: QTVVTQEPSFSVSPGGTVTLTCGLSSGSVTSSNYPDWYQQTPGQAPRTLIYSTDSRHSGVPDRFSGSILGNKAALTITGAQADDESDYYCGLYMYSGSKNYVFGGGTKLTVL	0.0029

Turning now to a further binder:
[ask] // returns reported koff for input 3B2g2m4 (antibody, human IgG1, V domains shown, human IgG1-LALA backbone; produced in HEK293 cells) VH: EVQLLESGGGLVQPGGSLRLSCAASGFTFSDYGMSWVRQAPGKGLEWVSAIPWQGGSTYYKESVKGRFTISRDNSKNTLYLQMNSLRAEDTAVYYCAKRSGRIAFGALDAWGQGTLVTVSS VL: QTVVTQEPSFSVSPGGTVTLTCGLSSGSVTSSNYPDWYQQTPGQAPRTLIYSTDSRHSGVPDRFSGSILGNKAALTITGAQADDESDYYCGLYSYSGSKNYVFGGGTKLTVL
[reply] 0.00256
